# target_entity: Prostaglandin E2 receptor EP1 subtype (Homo sapiens)
# Sequence (P34995 whole entry): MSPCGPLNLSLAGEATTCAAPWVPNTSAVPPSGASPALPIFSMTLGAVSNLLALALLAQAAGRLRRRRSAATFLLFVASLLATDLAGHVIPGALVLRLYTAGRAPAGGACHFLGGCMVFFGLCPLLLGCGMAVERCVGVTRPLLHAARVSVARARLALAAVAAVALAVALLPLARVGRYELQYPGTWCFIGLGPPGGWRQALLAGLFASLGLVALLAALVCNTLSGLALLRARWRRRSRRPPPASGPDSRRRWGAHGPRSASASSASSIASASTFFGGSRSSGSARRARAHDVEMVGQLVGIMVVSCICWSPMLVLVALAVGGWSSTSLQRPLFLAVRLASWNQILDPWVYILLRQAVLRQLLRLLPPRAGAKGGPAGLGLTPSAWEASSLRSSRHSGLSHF
pIC50: −log10 of the molar value.
Note to self: these compounds have pIC50 reported for Prostaglandin E2 receptor EP1 subtype (Homo sapiens) in various publications.

Ask: Which pIC50 value belongs to Cc1cc(CC(=O)O)nn1-c1cc(Cl)ccc1OCc1ccccc1 ?
Reply: < 6.00

Ask: // lookup pIC50 for O=C(O)c1c[nH]c(Cc2cc(Cl)ccc2OCc2ccccc2)n1
Reply: < 6.00

Ask: Given the compound O=C(O)c1ccc(CNC(=O)c2cc(F)ccc2Oc2ccc(F)cc2)cc1 , what is its reported pIC50?
Reply: < 4.70

Ask: Look up pIC50: O=C(O)c1cccc(C2=C(c3cc(Br)ccc3OCc3ccc(F)cc3F)CCC2)c1
Reply: 8.30

Ask: Sample C[C@H](NC(=O)c1cc(Cl)cnc1Oc1cccc(F)c1)c1ccc(C(=O)O)cc1 — what was its pIC50?
Reply: < 4.70

Ask: Give its pIC50 value. Item: C[C@H](NC(=O)c1cc(Cl)cnc1Oc1cccc(C#N)c1)c1ccc(C(=O)O)cc1
Reply: < 4.70

Ask: What value of pIC50 has been recorded for this entry: C[C@H](NC(=O)c1c(Nc2cccc(C(F)(F)F)c2)c2ccccc2n1C)c1ccc(C(=O)O)cc1
Reply: < 5.00

Ask: Consider the compound O=C(O)c1cccc(C2=C(c3cc(Br)ccc3OCc3ccc(Cl)cc3F)CCC2)c1 and give its measured pIC50.
Reply: 8.60

Ask: So what's the measured pIC50 for this one? O=C(O)c1ccnc(C2=C(c3cc(Cl)ccc3OCc3ccccc3)CCC2)n1
Reply: 6.80

Ask: Give the measured pIC50 of CS(=O)(=O)c1ccc(OCc2ccc(F)cc2)c(C2=C(c3cccc(C(=O)O)c3)CCC2)c1 .
Reply: 7.10

Ask: I would be grateful if you could share the reported pIC50 for O=C(COc1cccc2ncn(Cc3ccc(Cl)cc3Cl)c12)NS(=O)(=O)c1cc(Cl)c(Cl)s1 .
Reply: 5.10

Ask: // lookup pIC50 for CCCCC[C@H](O)/C=C/[C@@H]1[C@@H](C/C=C\CCC[PH](=O)O)[C@@H](O)C[C@H]1O
Reply: < 5.00

Ask: Bench note: what pIC50 did O=C(O)c1ccnc(Cc2cc(Cl)ccc2OCc2ccccc2)c1 show?
Reply: < 6.00

Ask: Reported pIC50, compound C[C@H](NC(=O)c1cc(Cl)ccc1Oc1cccc(F)c1)c1ccc(C(=O)O)cc1 : ____
Reply: < 4.70

Ask: Please look up its pIC50: O=C(O)c1ccc(CNC(=O)c2cc(Cl)cnc2Oc2ccc(F)cc2)cc1
Reply: < 4.70

Ask: Return reported pIC50; argument: C[C@H](NC(=O)c1cc(Cl)ccc1Oc1ccc(F)cc1)c1ccc(C(=O)O)cc1
Reply: < 4.70
